# tested_target: Histone deacetylase 1 (Homo sapiens)
# Sequence (Q13547 whole entry): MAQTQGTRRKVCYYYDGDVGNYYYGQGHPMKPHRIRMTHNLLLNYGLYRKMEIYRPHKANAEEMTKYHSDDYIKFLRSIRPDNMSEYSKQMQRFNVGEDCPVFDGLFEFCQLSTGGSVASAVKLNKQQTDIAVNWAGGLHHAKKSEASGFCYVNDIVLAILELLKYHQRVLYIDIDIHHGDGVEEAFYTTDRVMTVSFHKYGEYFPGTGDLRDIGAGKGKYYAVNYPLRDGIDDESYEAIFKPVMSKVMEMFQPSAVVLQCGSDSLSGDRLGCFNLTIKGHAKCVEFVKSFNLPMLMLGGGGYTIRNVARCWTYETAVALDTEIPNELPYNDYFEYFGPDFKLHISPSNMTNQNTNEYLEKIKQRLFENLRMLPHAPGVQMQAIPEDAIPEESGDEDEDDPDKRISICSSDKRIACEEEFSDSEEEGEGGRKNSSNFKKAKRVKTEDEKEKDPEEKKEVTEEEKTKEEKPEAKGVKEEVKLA
# assay_overview: Inhibition of HDAC1 in human MV4-11 cells assessed as increase in acetylated H3 at 10 to 1000 nM incubated for 24 hrs by Western blot analysis
# Type: cell-based
# stated_conditions: dose 10-1000 nM
Calls of active or inactive are those of the source. The rule behind the calls is not given here.

structure_smiles	inhibition
CC(C)Oc1ccc(C(C)(C)O)cc1-c1cn(C)c(=O)c2[nH]c(C(=O)NCCCCCCC(=O)NO)cc12	Active
Cn1cc(-c2ccccc2Oc2ccccc2)c2cc(C(=O)NCc3ccc(C(=O)Nc4ccccc4N)cc3)[nH]c2c1=O	Active
CC(C)Oc1ccc(C(C)(C)O)cc1-c1cn(C)c(=O)c2[nH]c(C(=O)NCc3ccc(C(=O)Nc4ccccc4N)cc3)cc12	Active

----------
Recorded pIC50 for the following compounds
# Test system: MV4-11
# assay_overview: Antiproliferative activity against human MV4-11 cells assessed as cell viability after 72 hrs by CCK8 assay
# Type: functional, cell-based
# stated_conditions: MV4-11, 72 h
Just so you know, pIC50 here is -log10 of the concentration in molar units; reply with that number alone.

Recorded results for 6 compounds are shown here.
structure_smiles	readout_kind	value_measured
Cn1cc(-c2cc(C(C)(C)O)ccc2Oc2ccc(F)cc2F)c2cc(C(=O)NCc3ccc(C(=O)Nc4ccccc4N)cc3)[nH]c2c1=O	pIC50	7.05
CC(C)Oc1ccc(C(C)(C)O)cc1-c1cn(C)c(=O)c2[nH]c(C(=O)NCc3ccc(C(=O)NO)cc3)cc12	pIC50	6.46
CCNC(=O)c1cc2c(-c3cc(C(C)(C)O)ccc3Oc3c(C)cc(F)cc3C)cn(C)c(=O)c2[nH]1	pIC50	6.60
Cn1cc(-c2cccc(F)c2)c2cc(C(=O)NCc3ccc(C(=O)Nc4ccccc4N)cc3)[nH]c2c1=O	pIC50	6.68
Cn1cc(-c2ccc(F)cc2)c2cc(C(=O)NCc3ccc(C(=O)Nc4ccccc4N)cc3)[nH]c2c1=O	pIC50	6.66
CC(C)Oc1ccccc1-c1cn(C)c(=O)c2[nH]c(C(=O)NCc3ccc(C(=O)Nc4ccccc4N)cc3)cc12	pIC50	6.89

Reported pIC50 for Cn1cc(-c2ccccc2Oc2ccccc2)c2cc(C(=O)NCCCCC(=O)NO)[nH]c2c1=O was 6.74

The compound listed as Cn1cc(-c2cc(C(C)(C)O)ccc2OC2CC2)c2cc(C(=O)NCc3ccc(C(=O)Nc4ccccc4N)cc3)[nH]c2c1=O has a reported pIC50 of 7.40

The reported value for Cn1cc(-c2cccc(Cl)c2)c2cc(C(=O)NCc3ccc(C(=O)Nc4ccccc4N)cc3)[nH]c2c1=O in terms of pIC50 is 6.72

Cn1cc(-c2ccccc2Oc2ccccc2)c2cc(C(=O)NCCCCC(=O)Nc3ccccc3N)[nH]c2c1=O yielded pIC50 of 6.62

Recorded result, Cn1cc(-c2cc(C(C)(C)O)ccc2Oc2ccc(F)cc2F)c2cc(C(=O)NCCCCCCC(=O)NO)[nH]c2c1=O , pIC50: 6.60

----------
# tested_target: Bromodomain-containing protein 4 (Homo sapiens, UniProt O60885)
# assay_overview: Inhibition of His-tagged BRD4 bromodomain 2 (unknown origin) using [Lys (5,8,12,16) Ac] H4(1-21) as substrate by fluorescence based assay
readout_kind: IC50

compound	tested_target	IC50
Cn1cc(-c2ccccc2Oc2ccccc2)c2cc(C(=O)NCc3ccc(C(=O)Nc4ccccc4N)cc3)[nH]c2c1=O	Bromodomain-containing protein 4 (Homo sapiens, UniProt O60885)	18.7 nM
O=C(CCCCCCC(=O)Nc1ccccc1)NO [VORINOSTAT]	Bromodomain-containing protein 4 (Homo sapiens, UniProt O60885)	> 10000 nM
Cn1cc(-c2ccccc2Oc2ccccc2)c2cc(C(=O)NCCCCCC(=O)NO)[nH]c2c1=O	Bromodomain-containing protein 4 (Homo sapiens, UniProt O60885)	3.8 nM

Cn1cc(-c2ccc(F)cc2)c2cc(C(=O)NCc3ccc(C(=O)Nc4ccccc4N)cc3)[nH]c2c1=O yielded IC50 of 79.9 nM

Per the records, this compound ( Cn1cc(-c2ccccc2Oc2ccccc2)c2cc(C(=O)NCCCCCCC(=O)Nc3ccccc3N)[nH]c2c1=O ) has IC50 equal to 15.4 nM

// sample CC(C)Oc1ccc(C(C)(C)O)cc1-c1cn(C)c(=O)c2[nH]c(C(=O)NCc3ccc(C(=O)Nc4ccccc4N)cc3)cc12 , its IC50 was 2.1 nM

The reported value for COc1ccccc1-c1cn(C)c(=O)c2[nH]c(C(=O)NCc3ccc(C(=O)Nc4ccccc4N)cc3)cc12 in terms of IC50 is 47.6 nM

Form: compound = Cn1cc(-c2ccccc2Oc2ccccc2)c2cc(C(=O)NCCCCCC(=O)Nc3ccccc3N)[nH]c2c1=O ; IC50 = 8.4 nM
